Target: Human GLP-1 receptor (human, UniProt P43220 24-463)
Sequence (P43220 24-463): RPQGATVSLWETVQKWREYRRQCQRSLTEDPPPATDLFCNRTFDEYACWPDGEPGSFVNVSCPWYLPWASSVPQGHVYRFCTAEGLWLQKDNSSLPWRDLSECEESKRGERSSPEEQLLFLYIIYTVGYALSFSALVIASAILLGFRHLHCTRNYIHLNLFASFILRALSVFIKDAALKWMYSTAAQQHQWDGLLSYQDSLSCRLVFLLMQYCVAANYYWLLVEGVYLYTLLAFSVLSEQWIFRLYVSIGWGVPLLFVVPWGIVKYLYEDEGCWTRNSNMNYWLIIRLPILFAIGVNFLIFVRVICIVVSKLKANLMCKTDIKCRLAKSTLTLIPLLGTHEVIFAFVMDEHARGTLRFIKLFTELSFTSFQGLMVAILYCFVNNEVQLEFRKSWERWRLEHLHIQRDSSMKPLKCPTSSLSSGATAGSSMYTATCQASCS
Assay: cell-based or functional assay
Where no end group is shown, it is not given here. [ ]: non-standard residue; d: D form. αMePhe(2-F) = C[C@](N)(Cc1ccccc1F)C(=O)O; Ac3c = NC1(C(=O)O)CC1; Aib = CC(C)(N)C(=O)O
Please go through the items and note down their cAMP release, % activity with respect to control; test compound 1 µM.
Mention the unit after the number when you answer.

Known cAMP release, % activity with respect to control; test compound 1 µM results, listed for orientation:
H[Aib]QGTFTSD[Bip(OMe)][Bip(2CF3)] [Seq. ID. No. 16: H-Aib-QGTFTSD-Bip(OMe)-Bip(2CF3)]; 99%
HXQGTXTSDXX (not fully specified; ACP at 2; α-Me-2F-Phe at 6; Bip(OMe) at 10; Bip(Pyr) at 11) [Seq. ID. No. 34: H-(ACP)-QGT-(α-Me-2F-Phe)-TSD-Bip(OMe)-Bip(Pyr)]; 99%
HAQGT[αMePhe(2-F)]TSD[Bip(OMe)][Bip(2Me)] [Seq. ID. No. 25: HAQGT-(α-Me-2F-Phe)-TSD-Bip(OMe)-Bip(2Me)]; 94%
HAQGT[αMePhe(2-F)]TSD[Bip(OMe)][Bip(2F)] [Seq. ID. No. 27: HAQGT-(α-Me-2F-Phe)-TSD-Bip(OMe)-Bip(2F)]; 99%

Can you give me cAMP release, % activity with respect to control; test compound 1 µM for all of these, one by one?
1. HSQGTFTSD[Bip(OMe)][Bip(2CF3)] (not fully specified (C-terminus); printed as HSQGTFTSD-Bip(OMe)-Bip(2CF3)) [Seq. ID. No. 8: HSQGTFTSD-Bip(OMe)-Bip(2CF3)]
2. HXQGTXTSDXX (Aib at 2; α-Me-2F-Phe at 6; Bip(OMe) at 10; Bip(2F) at 11) [Seq. ID. No. 31: H-Aib-QGT-(α-Me-2F-Phe)-TSD-Bip(OMe)-Bip(2F)]
3. HAQGTFTSD[Bip(OMe)][Bip(2Me)] (not fully specified (C-terminus); printed as HAQGTFTSD-Bip(OMe)-Bip(2Me)) [Seq. ID. No. 9: HAQGTFTSD-Bip(OMe)-Bip(2Me)]
4. H[Aib]QGTFTSD[Bip(OMe)][Bip(2Me)] [Seq. ID. No. 13: H-Aib-QGTFTSD-Bip(OMe)-Bip(2Me)]
5. H[Ac3c]QGTFTSD[Bip(OMe)][Bip(2Me)] [Seq. ID. No. 17: H-(ACP)-QGTFTSD-Bip(OMe)-Bip(2Me)]

95%
99%
94%
99%
99%

For every record below, what is its cAMP release, % activity with respect to control; test compound 1 µM?
1. HSQGTXTSDXX (α-Me-2F-Phe at 6; Bip(OMe) at 10; Bip(2CF3) at 11) [Seq. ID. No. 24: HSQGT-(α-Me-2F-Phe)-TSD-Bip(OMe)-Bip(2CF3)]
2. HXQGTXTSDXX (not fully specified; ACP at 2; α-Me-2F-Phe at 6; Bip(OMe) at 10; Bip(2F) at 11) [Seq. ID. No. 35: H-(ACP)-QGT-(α-Me-2F-Phe)-TSD-Bip(OMe)-Bip(2F)]
3. HSQGTFTSD[Bip(OMe)][Bip(2Me)]-NH2 [Seq. ID. No. 5: HSQGTFTSD-Bip(OMe)-Bip(2Me)]
4. H[Aib]QGTFTSD[Bip(OMe)][Bip(Pyr)] [Seq. ID. No. 14: H-Aib-QGTFTSD-Bip(OMe)-Bip(Pyr)]
5. HSQGTXTSDXX (α-Me-2F-Phe at 6; Bip(OMe) at 10; Bip(2Me) at 11) [Seq. ID. No. 21: HSQGT-(α-Me-2F-Phe)-TSD-Bip(OMe)-Bip(2Me)]
6. HSQGTFTSD[Bip(OMe)][Bip(2F)] (not fully specified (C-terminus); printed as HSQGTFTSD-Bip(OMe)-Bip(2F)) [Seq. ID. No. 7: HSQGTFTSD-Bip(OMe)-Bip(2F)]

1: 95%; 2: 99%; 3: 95%; 4: 99%; 5: 95%; 6: 99%

Please report cAMP release, % activity with respect to control; test compound 1 µM for every entry that follows.
1. HSQGTXTSDXX (α-Me-2F-Phe at 6; Bip(OMe) at 10; Bip(2F) at 11) [Seq. ID. No. 23: HSQGT-(α-Me-2F-Phe)-TSD-Bip(OMe)-Bip(2F)]
2. HXQGTXTSDXX (Aib at 2; α-Me-2F-Phe at 6; Bip(OMe) at 10; Bip(2CF3) at 11; C-terminal amide (CONH2)) [Seq. ID. No. 32: H-Aib-QGT-(α-Me-2F-Phe)-TSD-Bip(OMe)-Bip(2CF3)]

99%
99%

For every listed record, write down its cAMP release, % activity with respect to control; test compound 1 µM.
1. HAQGT[αMePhe(2-F)]TSD[Bip(OMe)][Bip(2CF3)] [Seq. ID. No. 28: HAQGT-(α-Me-2F-Phe)-TSD-Bip(OMe)-Bip(2CF3)]
2. HSQGTFTSD[Bip(OMe)][Bip(Pyr)] (not fully specified (C-terminus); printed as HSQGTFTSD-Bip(OMe)-Bip(Pyr)) [Seq. ID. No. 6: HSQGTFTSD-Bip(OMe)-Bip(Pyr)]

["99%", "96%"]
